- Target or system: Histone-lysine N-methyltransferase EZH2 (Homo sapiens, UniProt O75530+Q09028+Q15022+Q15910)
- Sequence (Q15910 whole entry, one chain of several): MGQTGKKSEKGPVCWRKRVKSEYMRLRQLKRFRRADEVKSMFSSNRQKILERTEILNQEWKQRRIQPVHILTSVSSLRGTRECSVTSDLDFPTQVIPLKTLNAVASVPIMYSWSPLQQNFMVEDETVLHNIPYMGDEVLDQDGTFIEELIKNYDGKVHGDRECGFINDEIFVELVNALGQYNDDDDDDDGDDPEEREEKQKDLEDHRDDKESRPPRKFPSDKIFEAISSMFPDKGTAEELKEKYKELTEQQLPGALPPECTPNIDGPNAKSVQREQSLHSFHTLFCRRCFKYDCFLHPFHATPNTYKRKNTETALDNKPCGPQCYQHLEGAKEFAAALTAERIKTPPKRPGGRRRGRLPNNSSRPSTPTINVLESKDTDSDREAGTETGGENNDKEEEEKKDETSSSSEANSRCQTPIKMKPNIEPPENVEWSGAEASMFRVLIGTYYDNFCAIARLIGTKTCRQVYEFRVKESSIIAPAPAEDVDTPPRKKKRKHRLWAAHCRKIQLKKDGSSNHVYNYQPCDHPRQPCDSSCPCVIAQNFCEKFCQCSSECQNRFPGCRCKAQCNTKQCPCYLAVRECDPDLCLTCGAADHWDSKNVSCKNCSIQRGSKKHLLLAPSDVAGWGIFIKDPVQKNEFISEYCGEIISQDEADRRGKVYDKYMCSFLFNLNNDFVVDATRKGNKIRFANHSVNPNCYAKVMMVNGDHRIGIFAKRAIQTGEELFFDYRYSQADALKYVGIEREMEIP
- Test: Inhibition of wild-type EZH2 (unknown origin) expressed in baculovirus infected SF9 cells co-expressing SUZ12/EED/RbAp48 complex using HeLa cells derived oligonucleosomes as substrate after 60 mins in presence of [3H] SAM by scintillation counting
Ki values for the compounds below.
Value kind: Ki (nM)

Record smiles | Scale unit | Measured result
Cc1cc(C)c(CN2CCc3c(Cl)cc(-c4c(C)noc4C)c(Cl)c3C2=O)c(=O)[nH]1 | nM | 0.7
Cc1cc(C)c(CN2CCc3ccc(-c4c(C)noc4C)c(Cl)c3C2=O)c(=O)[nH]1 | nM | 2
